- assay explanation: NCI Yeast Anticancer Drug Screen. Data for the bub3 strain (AID 167)
- experimental context: S. cerevisiae bub3 mutant strain, stronger effect = higher value; at 50.0 µM unless noted
Compounds without any hit were thinned out: in the full panel of roughly 79,000, 15% have a hit.
Item-by-item account of growth inhibition
Output spec: scalar in %, unitless text.

Example cases with answers are listed next.
| molecule | growth inhibition, % |
| --- | --- |
| O=c1oc2ccccc2cc1-c1nc2ccccc2c(=O)[nH]1 | -4.9 |
| O=C1c2cc3c(cc2CC12Cc1cc4c(cc1C2=O)CCC4)CCCC3 (stereo not given) | 0.35 |
| COc1ccc(OC2OC(CO)C(O)C(O)C2O)cc1 (stereo not given) | 6.5 |

Request the reported growth inhibition associated with Cc1ccc(NC(=O)CC/C(CC(=O)c2ccc(F)cc2)=N\NC(=O)C(=O)NN)cc1C
-1.7

---

Quick reference: growth inhibition of the listed items.
- assay explanation: NCI Yeast Anticancer Drug Screen. Data for the bub3 strain (AID 167)
- experimental context: S. cerevisiae bub3 mutant strain, stronger effect = higher value; at 50.0 µM unless noted
The panel holds about 79,000 compounds, 15% with a hit somewhere; the sample as a whole holds those more often. Where a SMILES comes first, the peptide text is derived from it. Bridges are numbered along the chain shown (N, C = ends). [ ]: non-standard residue; d: D form. Aib = CC(C)(N)C(=O)O; βAla = NCCC(=O)O
Response body: numeric value in %, unit text excluded.

Example entries and their recorded answers appear below.
| molecule | unit abbrev | numeric result |
| --- | --- | --- |
| CC1(C)NC(=O)C(NC(=O)C(N)CC(=O)O)CCCCNC(=O)CCNC1=O (centres undefined) (H-DK[Aib][βAla]; lactam 2-C; configuration not given here) | % | 6.35 |
| Cc1ccc(NCC2CC/C(=C\c3ccc(Cl)cc3)C2=O)cc1 (centres undefined) | % | -10.2 |
| CCOC(C)=Nc1cc(OC)cc2c1NC(=O)CCS2 | % | 5.6 |

Requested read-out: growth inhibition. Entry: O=S(=O)(N/N=C/c1cccc(Cl)c1Cl)c1ccccc1
3.5

---

- assay explanation: NCI Yeast Anticancer Drug Screen. Data for the bub3 strain (AID 167)
- experimental context: S. cerevisiae bub3 mutant strain, stronger effect = higher value; at 50.0 µM unless noted
Compounds without any hit were thinned out: in the full panel of roughly 79,000, 15% have a hit.
growth inhibition: recorded values
Your answer should be a plain number; it is taken to be in %.

| compound | growth inhibition / % |
| --- | --- |
| COCc1ccc2c(c1)C(O)NC(=O)O2 (configuration not stated) | -8.55 |

Tell me the measured growth inhibition of CC12C=CC(=O)C(O)C1CC=CC2 (configuration not stated) , please.
11.4

Form field: reported growth inhibition of ClC(=Nc1cccc2ccccc12)N(c1ccccc1)c1ccccc1
7.15

---

Parameter: growth inhibition. Scope: all listed entries.
- assay explanation: NCI Yeast Anticancer Drug Screen. Data for the cln2 rad14 strain (AID 165);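 note: 0% = growth equal to vehicle treated cultures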
- experimental context: S. cerevisiae cln2 rad14 strain, stronger effect = higher value; at 50.0 µM unless noted
The panel holds about 79,000 compounds, 15% with a hit somewhere; the sample as a whole holds those more often.
Give the quantity in %, number only.

Look at this compound and give its reported growth inhibition. O=c1oc2ccccc2cc1-c1nc2ccccc2c(=O)[nH]1
13.7

What value of measured growth inhibition is listed for CCCCCCCNC(=O)C(C)Br (stereo not drawn) ?
-41.9

Which value of growth inhibition has been reported for Cc1c(CCCl)c(N=P(c2ccccc2)(c2ccccc2)c2ccccc2)n2c(nc3ccccc32)c1C#N in the records?
12.5

---

// growth inhibition lookup, one value per entry
- assay explanation: NCI Yeast Anticancer Drug Screen. Data for the bub3 strain (AID 167)
- experimental context: S. cerevisiae bub3 mutant strain, stronger effect = higher value; at 50.0 µM unless noted
The panel holds about 79,000 compounds, 15% with a hit somewhere; the sample as a whole holds those more often. The source made the active and inactive calls. Rule as the data show it: active = growth inhibition above about 70%; inactive = the rest.

Before answering, review these 4 worked examples.
| compound | growth inhibition |
| --- | --- |
| CCCCCCCSCC(=O)OCC | -6.5% (inactive) |
| C=CCONC(=O)c1ccc(Cl)cc1 | -19.2% (inactive) |
| CSc1cc(Cl)c(C(=O)Nc2ccccc2)cc1S(=O)(=O)n1cc[nH]c1=O | -1.35% (inactive) |
| CC(Oc1ccc(OCC2CCCCC2)cc1)C(=O)N(CCO)CCO (stereo unspecified) | -43.4% (inactive) |

Query compound follows.
Given the entry S=c1nc[nH]c2[nH]cc(Br)c12 , report its measured growth inhibition.
3.75% (inactive)

---

- assay explanation: NCI Yeast Anticancer Drug Screen. Data for the rad50 strain (AID 155);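 note: 0% = growth of vehicle-only cultures of the same strain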
- experimental context: S. cerevisiae rad50 strain growth inhibition, stronger effect = higher value; at 50.0 µM unless noted
This is part of a sample that, as a whole, favours compounds with a hit. Of some 79,000 tested, about 15% had one in any assay. The source made the active and inactive calls. No stated cut-off is given here; in the data, active means growth inhibition above about 70%; inactive means the rest.
property: growth inhibition

Some entries whose results are on file:
| compound | result |
| --- | --- |
| CCOC(=O)CON=c1c2ccccc2ccc2ccccc12 | 4.05% (inactive) |
| Cc1ccc(Nc2ccc(C)cc2[N+](=O)[O-])cc1 | 18.3% (inactive) |
| CCc1cc(N(C)C)ccc1N=Nc1ccc([N+](=O)[O-])cc1 | 43.8% (inactive) |
| Cc1ccc(NC(=O)CC/C(CC(=O)C(C)(C)C)=N/NC(=O)c2cc3ccccc3cc2O)cc1C | 27.9% (inactive) |
| NC(=O)CCCCCCCCC(N)=O | 10.7% (inactive) |

Would you mind telling me what growth inhibition value was observed for Oc1ccc(Br)cc1/C=N/c1nc2ccccc2s1.Oc1ccc(Br)cc1/C=N/c1nc2ccccc2s1.[Cu] ?
38% (inactive)

Would you kindly share the measured growth inhibition for c1ccc(C2=NN(c3ccccc3)CC2)cc1 ?
-8.3% (inactive)

---

- assay explanation: NCI Yeast Anticancer Drug Screen. Data for the mec2-1 strain (AID 157)
- experimental context: S. cerevisiae mec2-1 strain, stronger effect = higher value; at 50.0 µM unless noted
This is part of a sample that, as a whole, favours compounds with a hit. Of some 79,000 tested, about 15% had one in any assay. Where a SMILES comes first, the peptide text is derived from it. [ ]: non-standard residue; d: D form. The star is where a group is joined. ξ: configuration not given here. Cbz = O=C(OCc1ccccc1)*; ξK = NCCCCC(N)C(=O)O
property: growth inhibition (%)
State the answer as a number, implicitly in %.

In the examples that follow, each entry is paired with its recorded growth inhibition.
| molecule | unit abbrev | growth inhibition |
| --- | --- | --- |
| CN(C)c1ccc(/C=C2\C[N+](C)(C)C/C(=C\c3ccc(N(C)C)cc3)C2=O)cc1 | % | 3.4 |
| Cc1ccc(C2OC3=C(Nc4ccc([N+](=O)[O-])cc4N3)C2=O)cc1 (configuration not stated) | % | 7.75 |
| CCOC(=O)c1cnc2c(cnn2CC)c1NCC(C)C | % | 21.8 |

Any idea what its growth inhibition is? The molecule is [N-]=[N+]=Nc1cccc(-c2n[nH]c(Cl)cc2=O)c1
-11.6

Record request: growth inhibition value, item COc1ccc2c(CSc3ncnc4nc[nH]c34)cc(=O)oc2c1
21.8

Quick check: growth inhibition of O=C1c2ccccc2C(=O)N1C/C=C/CO ?
8.75

What value of growth inhibition has been reported for the following molecule? Cc1c2noc1CCCCCCCCCCC2
20

Given the molecule O=C(O)/C(I)=C(\I)c1ccccc1 , what is its reported growth inhibition?
-6.7

Could you tell me which growth inhibition is on file for Cc1nc2cnc(=Nc3ccccc3)nc-2n(-c2ccccc2)c1C ?
-1.55

For the molecule shown here, COC(=O)/C=C/c1cccnc1 , give the reported growth inhibition.
-28.6

What value of growth inhibition has been reported for the following molecule? NCC(=O)NC(CCCCNC(=O)OCc1ccccc1)C(=O)O (configuration not stated) (H-Gly-[ξK](Cbz)-OH)
21

# get_value(readout='growth inhibition', item= O=C(Nc1ccccc1)Nc1ccc2c(c1)oc1ccccc12 )
6.7

Can you look up the measured growth inhibition of O=c1[nH]cnc2nc(N3CCOCC3)sc12 for me?
-4.6

Look at this molecule and give its reported growth inhibition. C=CCc1cc(OC)c2c(c1)C(O)CC(c1ccc(OC)c(OC)c1)O2 (configuration not stated)
1.25

// lookup growth inhibition for CCOC(=O)C(=CNC(=S)N=Nc1c(O)[nH]c2ccccc12)C(=O)OCC
-69.2

# query: growth inhibition of entry Cc1ccc(Nc2ccc(C)cc2[N+](=O)[O-])cc1
-2.25

---

- assay explanation: NCI Yeast Anticancer Drug Screen. Data for the rad50 strain (AID 155);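 note: 0% = growth of vehicle-only cultures of the same strain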
- experimental context: S. cerevisiae rad50 strain growth inhibition, stronger effect = higher value; at 50.0 µM unless noted
The panel holds about 79,000 compounds, 15% with a hit somewhere; the sample as a whole holds those more often.
Recorded growth inhibition values for a group of compounds are listed next.
Lab book: enter the figure in %, no units written.

As a guide, the following entries are already answered.
| compound | unit abbrev | numeric result |
| --- | --- | --- |
| CCCCN1C(=O)CC2[C@@H]3CCc4cc(OC(C)=O)ccc4C3CC[C@]2(C)C1=O (some centres undefined) | % | 11.3 |
| Nc1nc(N)c2ncn(Cc3ccccc3)c2n1 | % | -41.2 |
| FC(F)(F)c1ccc2ccc3ccc(Cl)cc3c2c1 | % | -7.5 |

# context switch: different compound, same growth inhibition
growth inhibition lookup needed for CC1(C)OC(=O)C(Cc2ccccc2)(Cc2ccccc2)C(=O)O1 , thanks.
2.2
